# yeast fitness annotations
B1: tRNA (parent)
chain: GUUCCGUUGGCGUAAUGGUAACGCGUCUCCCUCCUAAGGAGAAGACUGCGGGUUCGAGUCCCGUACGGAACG

Variants of: B1
Assay: yeast fitness relative to wild type (ratio to wild type); higher = fitter; tRNA-Arg(CCU), competitive growth, 37 C, YPD
This sample holds only a part of the variants without activity.

Variant label	yeast fitness
C5U C11G U13C A15U U32A U35G C55A C61G	≤ 0.5
G17A C34U C46G A65U	≤ 0.5
C4G G17A A57U U59C	≤ 0.5
C5G G10C C29A	≤ 0.5
C29G A42C G51A A70U	≤ 0.5
U26C A42C U54A	≤ 0.5
A14U U26A C66A	≤ 0.5
C4U G10C C30A G50A	≤ 0.5
C22A G51C C66U	≤ 0.5
U13C A15U C27U A69U	≤ 0.5
A20C A37C G41C G51C	≤ 0.5
C4A C31G A40C	≤ 0.5
U3A G9C A20G C29A G56A G67U	≤ 0.5
C30A A40C C46U C60U C66U	≤ 0.5
U19C C34U A43U G63A A70C	≤ 0.5
G12A U32C A43C A65U	≤ 0.5
U2C G23C C31G C33U A42G G52C A70G	≤ 0.5
A21C C34U C49U	≤ 0.5
C11U A15C C27G C30U C46A	≤ 0.5
G17C C33A C55A	0.672
A40U A43U C60U C62U C66U	≤ 0.5
C22A G48A	0.826
U26A A57C	0.64
A14C A42U C55G U59A	0.612
U7A A20G A40U	≤ 0.5
U8C G9C A37U G38A G39A	≤ 0.5
U2C G17A A37C	0.791
C5U G10A A21G G39A G48C	0.598
C30U A37U	0.65
G9A A21G U59A	0.731
G10C C55G A70C	≤ 0.5
